Here we list compounds with their recorded MIC when tested on Mucor hiemalis.

MOL_SMILES	COMPARISON_SYMBOL	MIC [µg/mL]
O=C1CCC(=O)c2c1c(O)cc1c2-c2ccc(O)c3c(O)ccc-1c23	=	66.7
Oc1cccc2c3c(ccc12)-c1ccc(O)c2c(O)ccc-3c12	=	66.7
COc1cccc2c3c(ccc12)-c1ccc(O)c2c(O)ccc-3c12	=	4.2
O=C1C[C@H]2C(=C3CCC(=O)c4c(O)ccc2c43)c2cccc(O)c21	>	66.7
COc1cccc2c3c(ccc12)-c1ccc(O)c2c(OC)ccc-3c12	>	66.7

====

Here we list compounds with their recorded MIC when tested on Mycolicibacterium smegmatis.

MOL_SMILES	MIC
O=C1CCC(=O)c2c1c(O)cc1c2-c2ccc(O)c3c(O)ccc-1c23	> 66.7 µg/mL
COc1cccc2c3c(ccc12)-c1ccc(O)c2c(O)ccc-3c12	33.3 µg/mL
O=C1C[C@H]2C(=C3CCC(=O)c4c(O)ccc2c43)c2cccc(O)c21	> 66.7 µg/mL
Oc1cccc2c3c(ccc12)-c1ccc(O)c2c(O)ccc-3c12	> 66.7 µg/mL
COc1cccc2c3c(ccc12)-c1ccc(O)c2c(OC)ccc-3c12	> 66.7 µg/mL

====

- PROTOCOL_TEXT: Cytotoxicity assay (MTT)
- Format: cell-based
- MEASUREMENT_PARAMETERS: L929 mouse fibroblasts, 5 days
ENDPOINT_LABEL: IC50 (µM)

MOLECULE	ENDPOINT_LABEL	RESULT_NUMBER
O=C1C[C@H]2C(=C3CCC(=O)c4c(O)ccc2c43)c2cccc(O)c21 [Compound 4, truncatone A]	IC50	10.4

====

- PROTOCOL_TEXT: Cytotoxicity assay (MTT)
- Format: cell-based
- MEASUREMENT_PARAMETERS: KB 3.1 human endocervical adenocarcinoma
ENDPOINT_LABEL: IC50 at 5 days (nM)

COMPOUND	ENDPOINT_LABEL	RESULT_NUMBER
C/C(=C\c1csc(C)n1)[C@@H]1C[C@@H]2O[C@]2(C)CCC[C@H](C)[C@H](O)[C@@H](C)C(=O)C(C)(C)[C@@H](O)CC(=O)O1 [epothilone B, reference compound]	IC50 at 5 days	0.79

====

- PROTOCOL_TEXT: Cytotoxicity assay (MTT)
- Format: cell-based
- MEASUREMENT_PARAMETERS: SK-OV-3 human ovary adenocarcinoma cells, SK-OV-3 human ovary AC

MOL_SMILES	IC50 at 5 days [µM]
O=C1CCC(=O)c2c1c(O)cc1c2-c2ccc(O)c3c(O)ccc-1c23	33.1
Oc1cccc2c3c(ccc12)-c1ccc(O)c2c(O)ccc-3c12	56.7
COc1cccc2c3c(ccc12)-c1ccc(O)c2c(O)ccc-3c12	7.3

====

- PROTOCOL_TEXT: Cytotoxicity assay (MTT)
- Type: cell-based
- MEASUREMENT_PARAMETERS: PC-3 human prostate AC
ENDPOINT_LABEL: IC50 at 5 days (nM)

COMPOUND	RESULT_NUMBER
C/C(=C\c1csc(C)n1)[C@@H]1C[C@@H]2O[C@]2(C)CCC[C@H](C)[C@H](O)[C@@H](C)C(=O)C(C)(C)[C@@H](O)CC(=O)O1 [epothilone B, reference compound]	0.08

====

- PROTOCOL_TEXT: Cytotoxicity assay (MTT)
- Assay type: cell-based
- MEASUREMENT_PARAMETERS: SK-OV-3 human ovary AC

MOLECULE	UNIT_STRING	IC50 at 5 days
C/C(=C\c1csc(C)n1)[C@@H]1C[C@@H]2O[C@]2(C)CCC[C@H](C)[C@H](O)[C@@H](C)C(=O)C(C)(C)[C@@H](O)CC(=O)O1 [epothilone B, reference compound]	nM	0.34
